target or test system: T1, interleukin 18 binding protein (IL-18BP) (UniProt O95998 31-194); also: unit not given here
T1 sequence (looked up): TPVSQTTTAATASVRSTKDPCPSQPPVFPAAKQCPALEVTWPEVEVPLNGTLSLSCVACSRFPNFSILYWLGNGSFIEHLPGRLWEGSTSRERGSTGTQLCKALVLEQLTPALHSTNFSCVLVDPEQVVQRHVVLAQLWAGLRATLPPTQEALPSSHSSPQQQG
experiment notes: cell-based or functional assay
Hi there, I'd appreciate the recorded HEK-Blue activity, +100 nM BP, DF-10000 for every entry that follows.
Just the number, please, no unit attached.

Consider the binder IL-18 variant K53H, S55I (ligand) YFGKLESKLSVIRNLNDQVLFIDQGNRPLFEDMTDSDMRDNAPRTIFIISMYHDIQPRGMAVTISVKSEKISTLSSENKIISFKEMNPPDNIKDTKSDIIFFQRSVPGHDNKMQFESSSYEGYFLASEKERDLFKLILKKEDELGDRSIMFTVQNED and give its measured HEK-Blue activity, +100 nM BP, DF-10000.
0.16

Consider the binder IL-18 variant K53H, S55H (ligand) YFGKLESKLSVIRNLNDQVLFIDQGNRPLFEDMTDSDMRDNAPRTIFIISMYHDHQPRGMAVTISVKSEKISTLSSENKIISFKEMNPPDNIKDTKSDIIFFQRSVPGHDNKMQFESSSYEGYFLASEKERDLFKLILKKEDELGDRSIMFTVQNED and give its measured HEK-Blue activity, +100 nM BP, DF-10000.
0.15

Consider the binder IL-18 variant K53S, S55Y, P107M (ligand) YFGKLESKLSVIRNLNDQVLFIDQGNRPLFEDMTDSDMRDNAPRTIFIISMYSDYQPRGMAVTISVKSEKISTLSSENKIISFKEMNPPDNIKDTKSDIIFFQRSVMGHDNKMQFESSSYEGYFLASEKERDLFKLILKKEDELGDRSIMFTVQNED and give its measured HEK-Blue activity, +100 nM BP, DF-10000.
0.19

Data credit: patent US20240182536A1
